Recorded measurements of protein stability index, one per entry
B1: GLT8D2 (parent)
chain: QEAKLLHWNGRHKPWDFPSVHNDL

variants of: B1; test: protein stability index of a GFP-peptide fusion (GPS, HEK-293T) (PSI 1-6); higher = more stable; conditions: c terminus: a fixed tail appended;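 further: lentivirally expressed fusions sorted by FACS into six bins by GFP to DsRed ratio, PSI derived from sequencing read proportions per bin multiplied by bin number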

>  <SEQUENCE INPUT>
QEAKNLHWNGRHKPWDFPSVHNDL [L5N]

>  <protein stability index>
2.67

$$$$
>  <SEQUENCE INPUT>
QEAKLLHWNGRHKPWWFPSVHNDL [D16W]

>  <protein stability index>
2.5

$$$$
>  <SEQUENCE INPUT>
QEAKLLHCNGRHKPWDFPSVHNDL [W8C]

>  <protein stability index>
3.2

$$$$
>  <SEQUENCE INPUT>
QEAKLLHWNGRHKPWDFPSVHWDL [N22W]

>  <protein stability index>
2.08

$$$$
>  <SEQUENCE INPUT>
QEAKLLHWNGRHKPWSFPSVHNDL [D16S]

>  <protein stability index>
2.46

$$$$
>  <SEQUENCE INPUT>
QELKLLHWNGRHKPWDFPSVHNDL [A3L]

>  <protein stability index>
2.59

$$$$
>  <SEQUENCE INPUT>
QEAKLLHWNGRHKPWDFQSVHNDL [P18Q]

>  <protein stability index>
2.83

$$$$
>  <SEQUENCE INPUT>
QEAKLLHWNGRHKPEDFPSVHNDL [W15E]

>  <protein stability index>
4.14

$$$$
>  <SEQUENCE INPUT>
QEAKLLGWNGRHKPWDFPSVHNDL [H7G]

>  <protein stability index>
2.63

$$$$
>  <SEQUENCE INPUT>
QEAKLLDWNGRHKPWDFPSVHNDL [H7D]

>  <protein stability index>
3.16

$$$$
>  <SEQUENCE INPUT>
QEAKLLHWNGRHKPGDFPSVHNDL [W15G]

>  <protein stability index>
3.76

$$$$
>  <SEQUENCE INPUT>
QEAKLAHWNGRHKPWDFPSVHNDL [L6A]

>  <protein stability index>
2.87

$$$$
>  <SEQUENCE INPUT>
QEAKLLHWNGRHKPWDFPSVHNDY [L24Y]

>  <protein stability index>
2.98

$$$$
>  <SEQUENCE INPUT>
QEAKLLHWNGRHKPWDFPNVHNDL [S19N]

>  <protein stability index>
2.84

$$$$
>  <SEQUENCE INPUT>
QEAKLLHWNGAHKPWDFPSVHNDL [R11A]

>  <protein stability index>
3.24

$$$$
>  <SEQUENCE INPUT>
QEAKLFHWNGRHKPWDFPSVHNDL [L6F]

>  <protein stability index>
2.83

$$$$
>  <SEQUENCE INPUT>
QEAKLLHWNGRHKPWDFDSVHNDL [P18D]

>  <protein stability index>
3.06

$$$$
>  <SEQUENCE INPUT>
QEAKLLHWNGRHEPWDFPSVHNDL [K13E]

>  <protein stability index>
2.92

$$$$
>  <SEQUENCE INPUT>
QEAKLLHWNARHKPWDFPSVHNDL [G10A]

>  <protein stability index>
2.75

$$$$
>  <SEQUENCE INPUT>
QEAKLLHWNGRHKPWDFPSTHNDL [V20T]

>  <protein stability index>
2.52

$$$$
>  <SEQUENCE INPUT>
QEAKLLHWNGRHKPWDFPSVHADL [N22A]

>  <protein stability index>
2.9

$$$$
>  <SEQUENCE INPUT>
FEAKLLHWNGRHKPWDFPSVHNDL [Q1F]

>  <protein stability index>
1.65

$$$$
>  <SEQUENCE INPUT>
QEAKLLHWNGRHKPFDFPSVHNDL [W15F]

>  <protein stability index>
2.88

$$$$
>  <SEQUENCE INPUT>
QEAKLLHWQGRHKPWDFPSVHNDL [N9Q]

>  <protein stability index>
2.76

$$$$
>  <SEQUENCE INPUT>
VEAKLLHWNGRHKPWDFPSVHNDL [Q1V]

>  <protein stability index>
2

$$$$
>  <SEQUENCE INPUT>
QWAKLLHWNGRHKPWDFPSVHNDL [E2W]

>  <protein stability index>
2.2

$$$$
>  <SEQUENCE INPUT>
QEAKLLHWNGRHKPWDFPSVCNDL [H21C]

>  <protein stability index>
2.48

$$$$
>  <SEQUENCE INPUT>
QEHKLLHWNGRHKPWDFPSVHNDL [A3H]

>  <protein stability index>
2.83

$$$$
>  <SEQUENCE INPUT>
QEAKLLHWNGRHKPWDFPSVHNDW [L24W]

>  <protein stability index>
2.06

$$$$
>  <SEQUENCE INPUT>
QEAKLLHWNGRHKPPDFPSVHNDL [W15P]

>  <protein stability index>
3.81

$$$$
>  <SEQUENCE INPUT>
QEAKLLHTNGRHKPWDFPSVHNDL [W8T]

>  <protein stability index>
3.23

$$$$
>  <SEQUENCE INPUT>
QEAKLLHWNGRHKPWDNPSVHNDL [F17N]

>  <protein stability index>
2.85

$$$$
>  <SEQUENCE INPUT>
QEAKLLHWNGRHKPWDFPSVHNYL [D23Y]

>  <protein stability index>
1.98

$$$$
>  <SEQUENCE INPUT>
QEAKLEHWNGRHKPWDFPSVHNDL [L6E]

>  <protein stability index>
3.74

$$$$
>  <SEQUENCE INPUT>
QEAKLLHWNGRHKPWDFPSDHNDL [V20D]

>  <protein stability index>
3.53

$$$$
>  <SEQUENCE INPUT>
QEAKLLHWNGRHKMWDFPSVHNDL [P14M]

>  <protein stability index>
2.36

$$$$
>  <SEQUENCE INPUT>
QEAKKLHWNGRHKPWDFPSVHNDL [L5K]

>  <protein stability index>
3.14

$$$$
>  <SEQUENCE INPUT>
QEAKLLHWNSRHKPWDFPSVHNDL [G10S]

>  <protein stability index>
2.69

$$$$
>  <SEQUENCE INPUT>
QEAKYLHWNGRHKPWDFPSVHNDL [L5Y]

>  <protein stability index>
2.45

$$$$
>  <SEQUENCE INPUT>
QEAKLLHYNGRHKPWDFPSVHNDL [W8Y]

>  <protein stability index>
2.42

$$$$
>  <SEQUENCE INPUT>
QEAKLLHWNGRHKPWVFPSVHNDL [D16V]

>  <protein stability index>
2.12

$$$$
>  <SEQUENCE INPUT>
QEAKLLHWNGRHKPWDFWSVHNDL [P18W]

>  <protein stability index>
1.8

$$$$
>  <SEQUENCE INPUT>
QEAKFLHWNGRHKPWDFPSVHNDL [L5F]

>  <protein stability index>
2.51

$$$$
>  <SEQUENCE INPUT>
REAKLLHWNGRHKPWDFPSVHNDL [Q1R]

>  <protein stability index>
2.48

$$$$
>  <SEQUENCE INPUT>
QEAKLLHWNGRHKPWDFPSVHNVL [D23V]

>  <protein stability index>
2.81

$$$$
>  <SEQUENCE INPUT>
QQAKLLHWNGRHKPWDFPSVHNDL [E2Q]

>  <protein stability index>
2.85

$$$$
